- Tested on: RPMI-8226 leukemia
- PROCEDURE_TEXT: NCI tumour cell line growth inhibition, 48 h
TGI by entry:

| MOLECULE | TGI |
| --- | --- |
| COC(CN(C(C)=O)C1CCC2(SCCS2)c2[nH]c3ccccc3c21)OC (stereo not drawn) | > 100 µM |
| CC(=O)c1ccc2c(c1)C1C=CCC1[C@H](c1cc3c(cc1Br)OCO3)N2 (stereo partly drawn) | 13.2 µM |
| Nc1[nH]nc(Nc2ccc(Cl)cc2)c1P(=O)(c1ccccc1)c1ccccc1 | > 100 µM |
| COc1ccc(-n2c(N)c(C#N)[nH]c2=O)cc1 | > 10 µM |
| c1ccc(C(NCC2CCO2)(c2ccccc2)c2ccccc2)cc1 (stereo not drawn) | > 100 µM |
| Brc1ccc(C[P+]2(c3ccccc3)CCCCC2)cc1 | > 100 µM |
| O=C1c2ccccc2C(=O)c2cc(N=Nc3c(O)ccc4ccccc34)ccc21 | > 100 µM |
| O=C(O)CCC(=O)c1ccc2c(c1)C(C(=O)O)CC2 (stereo not drawn) | > 100 µM |
| O=c1c2cc(F)ccc2sc2c(N3CCNCC3)nc3ccc(F)cc3c12 | 4.89 µM |
| Cc1ccccc1OC(C)C(=O)NN1C(=O)CSC1c1ccc(Cl)cc1 (stereo not drawn) | > 61 µM |
| Cn1c(-c2c(N)n(Nc3cccc(Cl)c3)c3nc(C#N)c(C#N)nc23)nc2ccccc21 | > 50 µM |
| C=C(CC(NC(=O)c1ccc(C(CC)Cc2cnc3nc(N)nc(N)c3n2)cc1)C(=O)O)C(=O)O (stereo not drawn) | > 100 µM |
| N#CN/C(N)=N/C/N=C(\N)NC#N | > 100 µM |
| NC(N)=NC(N)=Nc1ccc(S(=O)(=O)O)cc1 | > 100 µM |
| Cc1nn[n-]n1.N.N.N.N.N.[Cl-].[Co+3] | > 100 µM |
| CN(C(=O)C12C3C4C5C3C1(C(=O)C13C6C7C8C6C1C8C73)C5C42)C(C)(C)C (stereo not drawn) | > 42.9 µM |
| COc1cc(C(C)O)c(S(=O)(=O)CC(C)O)nn1 (stereo not drawn) | > 100 µM |
| CCNc1cc(-c2cccc(OC(F)(F)F)c2)nc2ccc(N3CCCC3)cc12 | 3.92 µM |
| COc1ccc(NC(=O)/C(=C/c2ccccc2)C(C)=O)cc1 | 24.8 µM |
| COc1ccc(/C=C/C(=O)/C=C/c2cc3ccccc3[nH]c2=O)cc1 | 5.02 µM |
| CS(=O)(=O)c1nc(-c2cc3c(c(S(C)(=O)=O)n2)CCCC3)cc2c1CCCCC2 | > 100 µM |
| CCOC(=O)Nc1nc2ccc(OC)cc2s1 | > 100 µM |
| NS(=O)(=O)c1ccc(-n2nc3c(c2-c2ccc(Cl)cc2)Cc2ccccc2-3)cc1 | 24.7 µM |

---

TGI by entry:
- Tested on: PC-3 prostate
- PROCEDURE_TEXT: NCI tumour cell line growth inhibition, 48 h
MEASURED_QUANTITY: TGI

| MOLECULE | MEAS_VALUE |
| --- | --- |
| O=C1/C(=C/c2cccc(Br)c2)COc2ccc(O)cc21 | 5.57 µM |
| CN(C(=O)Cc1ccccc1)n1cnn(CC(=O)OC(C)(C)C)c1=S | > 10 µM |
| COc1ccc(-n2c(N)c(C#N)[nH]c2=O)cc1 | > 10 µM |
| O=C(NOC[C@H](O)CO)c1ccc(F)c(F)c1Nc1ccc(I)cc1F | > 100 µM |
| COc1ccc(-n2[nH]nc(C(N)=O)c2=O)cc1 | > 100 µM |
| CC(=O)OC12C3C4C1C1C2C3C41OC(C)=O (stereo unspecified) | > 100 µM |
| O=[N+]([O-])c1ccc2c(c1)N([O-])C1(CCCCC1)[N+]2=O | 31.2 µM |
| CC1=NC2=Nc3nc(C)cc[n+]3CN2C=C1 | > 100 µM |
| COc1cc2c(c(OC)c1OC)-c1ncc3c(OC)c(OC)c(OC)cc3c1C2 | > 100 µM |
| CC[C@H](Nc1ncnc2nc[nH]c12)c1nc2cccc(F)c2c(=O)n1-c1ccccc1 | > 100 µM |
| CCN1CCC(O)(c2ccc(Oc3ccc(F)cc3)cc2)C(C(=O)c2ccc(Oc3ccc(F)cc3)cc2)C1 (stereo unspecified) | 26.4 µM |
| COc1ccc(/C=C/C(=O)/C=C/c2cc3ccccc3[nH]c2=O)cc1 | 7.81 µM |
| Clc1ccc(C(c2ccccc2Cl)C(Cl)Cl)cc1 (stereo unspecified) | 35.5 µM |
| O=C1c2ccccc2C(=O)c2cc(N=Nc3c(O)ccc4ccccc34)ccc21 | > 100 µM |
| C#C/C=C\CCCC/C=C\C#CC#CCCCC#CC#C[C@H](COS(=O)(=O)O)OS(=O)(=O)O | > 100 µM |
| O=C(/C=C/c1ccccc1)CSc1ncn[nH]1 | > 100 µM |
| CCOC(=O)c1[nH]c(-c2[nH]c(-c3[nH]c(-c4[nH]c(C(=O)OCC)c(C)c4C(=O)OCC)c(C(=O)OCC)c3C)c(C)c2C(=O)OCC)c(C(=O)OCC)c1C | > 100 µM |
| [C](#Cc1ccccc1)[Hg][C]#Cc1ccccc1 | 87.5 µM |
| COc1cc2c(cc1OC)C(=O)N(c1ccc(O)cc1)C2=O | > 100 µM |
| COc1cc2nc(SCc3cc(OC)c(OC)c(OC)c3)n(Cc3ccccc3)c(=O)c2cc1OC | > 100 µM |
| COc1cc(OC)c(C(=O)/C=C/c2cc3c(cc2OCc2ccccc2)OC(C)(C)CC3)cc1CC=C(C)C | > 25 µM |

---

- Test system: OVCAR-4 ovarian
- PROCEDURE_TEXT: NCI tumour cell line growth inhibition, 48 h

| COMPOUND | TGI |
| --- | --- |
| O=C(/C=C/c1cccc(Oc2ccccc2)c1)NCc1ccc(C(=O)NCc2ccccc2)cc1 | > 100 µM |
| O=C(/C=C/C12c3ccccc3C(c3ccccc31)C1C(=O)NC(=O)C12)c1ccc(Cl)cc1Cl (centres undefined) | 3.82 µM |
| OCc1ccc(N2CCc3cccc(F)c3C2)cc1Cl | 0.201 µM |
| COC(=O)c1cc2c3ccccc3n3c(=O)c4cc5ccc(N(S(=O)(=O)c6ccc(C)cc6)S(=O)(=O)c6ccc(C)cc6)cc5nc4c(n1)c23 | > 100 µM |
| O=C1/C(=C\c2cccc(Oc3ccccc3)c2)SC(c2ccccc2)N1c1ccccc1 (centres undefined) | > 100 µM |
| N#CN/C(N)=N/C/N=C(\N)NC#N | > 100 µM |
| CC(C)CCC[C@@H](C)[C@H]1CC[C@H]2[C@@H]3CC[C@H]4C[C@@H](CCC=C(c5cc(Cl)c(O)c(C(=O)O)c5)c5cc(Cl)c(O)c(C(=O)O)c5)CC[C@]4(C)[C@H]3CC[C@]12C | > 100 µM |
| CC1=CC(=O)CC2(C)CC[C@@H]3C[C@]12OC3(C)C (some centres undefined) | > 100 µM |
| Cc1ccccc1NC(=O)c1cc(-c2ccc([N+](=O)[O-])cc2)nc(=S)[nH]1 | > 100 µM |

---

- System: SK-OV-3 ovarian
- PROCEDURE_TEXT: NCI tumour cell line growth inhibition, 48 h

| COMPOUND | TGI |
| --- | --- |
| CCCCCCCCCCCCCCCCCC1=NC(C)(C)CN1CC(C)O (centres undefined) | 37 µM |
| Cc1nc(C)c(N2CCN(S(=O)(=O)N(Cc3ccccc3)Cc3ccccc3)CC2)c(=O)[nH]1 | > 54.2 µM |
| CN(C(=O)C12C3C4C5C3C1(C(=O)C13C6C7C8C6C1C8C73)C5C42)C(C)(C)C (centres undefined) | > 50 µM |
| CCOC(=O)Nc1nc2ccc(OC)cc2s1 | > 100 µM |
| C=C1C(=O)OC2C/C(C)=C/CC/C(C)=C/CCC3(COC(C)=O)OC3CC12 (centres undefined) | 26.7 µM |
| CN(C)CCNC(=O)c1ccc(NCCCN(C)CCCNc2ccc(C(=O)NCCN(C)C)c3[nH]c4ccccc4c(=O)c23)c2c(=O)c3ccccc3[nH]c12 | 0.427 µM |
| CC(=O)N/N=C1\CC(C)(C)C2CCC1C2 (centres undefined) | > 100 µM |
| CC(=O)Oc1ccc(C23c4ccccc4C2(OC(C)=O)c2cc(OC(C)=O)ccc23)cc1 (centres undefined) | 47.6 µM |
| CC(=O)c1c(C)nc(SSc2nc(C)c(C(C)=O)c(-c3ccc(Cl)cc3)c2C#N)c(C#N)c1-c1ccc(Cl)cc1 | > 150 µg/mL |

---

TGI by entry:
- Tested on: DLD-1 colon
- PROCEDURE_TEXT: NCI tumour cell line growth inhibition, 48 h

| COMPOUND | TGI |
| --- | --- |
| CCN(CC)CCCNc1ccc2nc(C)n3c4ccc(O)cc4c(=O)c1c23 | 16.2 µM |
| COc1ccc(NC(=O)/C(=C/c2ccccc2)C(C)=O)cc1 | 28.7 µM |
| NC1=C(NC(=O)Cc2ccccc2F)C(=O)c2ccccc2C1=O | 52.9 µM |
| COc1ccc(C(=O)O[C@H]2[C@@H]3C=CO[C@@H](OC4OC(CO)C(O)C(O)C4O)[C@@H]3[C@@]3(CO)O[C@@H]23)cc1O (stereo partly drawn) | > 100 µM |
| CC1=C(C(=O)CC(=O)C(=O)Nc2cc(C)ccc2C)Sc2ccccc2N1 | > 100 µM |
| CC(C)(C)c1cc(C(O)(C(F)(F)F)C(F)(F)F)c2c(c1)C(C(F)(F)F)(C(F)(F)F)OC(C)(C(C)(C)C)N2 (stereo not drawn) | > 100 µM |
| Brc1ccc(C[P+]2(c3ccccc3)CCCCC2)cc1 | > 100 µM |
| CCNC(=O)COc1ccc(Br)cc1Br | > 100 µM |
| N/N=C1\C(=O)N(C2CCCCCC2)C(=O)C1C(=O)NC1CCCCCC1 (stereo not drawn) | > 100 µM |
| N#CN/C(N)=N/C/N=C(\N)NC#N | > 100 µM |
| CC1=Nc2c(ccc3c2C(=O)c2ccccc2C3=O)NC(c2cccc3c2CCC3)C1 (stereo not drawn) | > 100 µM |
| CCC[CH2][Sn]([Cl])([Cl])[CH2]CCC | 1.99 µM |
| CCOc1ccc2[nH]c3c(C)c4ccncc4c(C)c3c2c1 | 1.96 µM |
| COC/C=C\COC | > 100 µM |
| CCC(=O)c1c(NOC2OCC(OC(C)=O)C(OC(C)=O)C2OC(C)=O)nc(OC)n(C)c1=O (stereo not drawn) | > 100 µM |
| CCCNC(=O)C1C(=O)C(=O)N(CCC)C1=O (stereo not drawn) | > 100 µM |
| COC(=O)/C=C(C)/C=C/C1OC(C)OCC1O (stereo not drawn) | > 100 µM |
| Cc1c2ccncc2cc2c1[nH]c1ccccc12 | 38.5 µM |
